- SYSTEM: Transient receptor potential cation channel subfamily V member 1 (Homo sapiens)
- METHOD_DESCRIPTION: Agonist activity at recombinant human TRPV1 channel expressed in HEK293 cells assessed as increase in intracellular Ca2+ concentration by Fluo-4-AM dye based spectrofluorimetry
pEC50: −log10 of the molar value.
Reported pEC50 values follow for various molecules
PROPERTY_LABEL: pEC50

| CHEM_SMILES | PROPERTY_LABEL | RECORDED_MEASUREMENT |
| --- | --- | --- |
| CC(C)(C)c1ccc(C(=O)Nc2ccc(B(O)O)cc2)cc1 | pEC50 | 6.28 |
| CCCCCCCC/C=C\CCCCCCCC(=O)NCc1ccc(B(O)O)cc1 | pEC50 | 7.66 |
| O=C(CCCCCCCc1ccccc1)NCc1ccc(B(O)O)cc1 | pEC50 | 6.00 |
| O=C(Cc1ccc(O)cc1)NCCCCCCCc1ccccc1 | pEC50 | 6.77 |
| COc1cc(CNC(=O)CCCCCCCc2ccccc2)ccc1B(O)O | pEC50 | 7.29 |
| O=C(NCc1ccc(B(O)O)cc1)c1ccc(-c2ccccc2)cc1 | pEC50 | 5.37 |

* * *

- SYSTEM: Transient receptor potential cation channel subfamily V member 1 (Homo sapiens, UniProt Q8NER1)
- Sequence (Q8NER1 whole entry): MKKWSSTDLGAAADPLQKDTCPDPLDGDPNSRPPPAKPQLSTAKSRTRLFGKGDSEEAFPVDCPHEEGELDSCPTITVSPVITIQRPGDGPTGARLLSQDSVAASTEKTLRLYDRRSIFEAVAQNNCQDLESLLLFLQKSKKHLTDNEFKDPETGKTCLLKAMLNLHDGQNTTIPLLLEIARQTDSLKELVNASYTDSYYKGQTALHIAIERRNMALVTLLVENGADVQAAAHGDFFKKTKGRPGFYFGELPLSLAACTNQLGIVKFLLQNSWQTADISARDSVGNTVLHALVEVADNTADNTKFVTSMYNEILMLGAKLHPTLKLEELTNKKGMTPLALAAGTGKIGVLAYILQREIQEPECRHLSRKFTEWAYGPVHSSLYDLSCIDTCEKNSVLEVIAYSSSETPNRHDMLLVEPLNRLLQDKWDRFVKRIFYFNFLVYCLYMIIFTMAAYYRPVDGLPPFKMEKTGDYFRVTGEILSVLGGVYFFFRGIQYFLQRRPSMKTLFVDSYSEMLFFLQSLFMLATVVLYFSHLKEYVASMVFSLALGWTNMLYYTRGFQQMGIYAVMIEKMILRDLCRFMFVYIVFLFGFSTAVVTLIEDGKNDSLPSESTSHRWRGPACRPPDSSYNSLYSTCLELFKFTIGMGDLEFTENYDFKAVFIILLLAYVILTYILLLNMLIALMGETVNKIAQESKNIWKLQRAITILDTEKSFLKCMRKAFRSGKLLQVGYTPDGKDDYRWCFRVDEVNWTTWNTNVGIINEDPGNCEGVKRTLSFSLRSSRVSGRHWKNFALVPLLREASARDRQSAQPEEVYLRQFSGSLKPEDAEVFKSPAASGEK
- METHOD_DESCRIPTION: Agonist activity at recombinant human TRPV1 channel expressed in HEK293 cells assessed as increase in intracellular Ca2+ concentration by Fluo-4-AM dye based spectrofluorimetry
One threshold, 0.7 µM, splits the recorded EC50 values: lower ones are Satisfied, equal or higher ones are Not satisfied.

| CHEM_SMILES | ANSWER_LABEL |
| --- | --- |
| COc1cc(CNC(=O)CCCCCc2ccccc2)ccc1B(O)O | Not satisfied |
| O=C(CCCCCc1ccccc1)NCc1ccc(B(O)O)cc1 | Not satisfied |
| O=C(CCc1ccccc1)NCc1ccc(B(O)O)cc1 | Satisfied |
| O=C(Cc1ccccc1)NCCCCCCCc1ccccc1 | Satisfied |
| O=C(Cc1ccc(B(O)O)cc1)NCCCCCCCc1ccccc1 | Satisfied |
| CCCCCCCC/C=C\CCCCCCCC(=O)NCc1ccc(B(O)O)c(OC)c1 | Satisfied |
| O=C(Nc1ccc(-c2ccccc2)cc1)c1ccc(B(O)O)cc1 | Not satisfied |
| O=C(Cc1ccc(B(O)O)cc1)NCc1ccc(-c2ccccc2)cc1 | Satisfied |
| O=C(Cc1ccc(B(O)O)cc1)NCCCCc1ccccc1 | Not satisfied |
| O=C(Cc1ccc(B(O)O)cc1)NCCCCCc1ccccc1 | Not satisfied |

* * *

- SYSTEM: Fatty-acid amide hydrolase 1 (Rattus norvegicus, UniProt P97612)
- Sequence (P97612 whole entry): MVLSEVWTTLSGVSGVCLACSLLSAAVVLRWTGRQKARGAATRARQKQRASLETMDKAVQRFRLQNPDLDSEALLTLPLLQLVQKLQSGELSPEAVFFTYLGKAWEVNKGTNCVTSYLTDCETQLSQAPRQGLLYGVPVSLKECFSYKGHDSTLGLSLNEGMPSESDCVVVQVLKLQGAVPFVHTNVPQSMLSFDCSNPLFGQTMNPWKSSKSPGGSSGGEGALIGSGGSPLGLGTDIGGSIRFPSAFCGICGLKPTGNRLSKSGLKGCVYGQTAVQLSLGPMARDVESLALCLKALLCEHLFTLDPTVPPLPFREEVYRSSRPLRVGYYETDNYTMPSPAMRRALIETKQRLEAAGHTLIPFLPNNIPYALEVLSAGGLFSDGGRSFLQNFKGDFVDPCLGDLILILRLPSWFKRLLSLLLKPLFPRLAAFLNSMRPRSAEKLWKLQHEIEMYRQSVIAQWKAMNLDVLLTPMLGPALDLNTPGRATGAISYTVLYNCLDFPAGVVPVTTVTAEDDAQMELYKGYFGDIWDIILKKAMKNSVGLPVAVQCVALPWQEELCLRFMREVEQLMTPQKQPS
- METHOD_DESCRIPTION: Inhibition of rat brain FAAH assessed as hydrolysis of [14C]AEA to [14C]Ethanolamine incubated for 30 mins by scintillation counting method
pIC50: −log10 of the molar value.
pIC50 reference

| CHEM_SMILES | RESULT_COMPARATOR | pIC50 |
| --- | --- | --- |
| CC(C)(C)c1ccc(NC(=O)Nc2ccc(B(O)O)cc2)cc1 | < | 5.00 |
| O=C(Cc1ccc(B(O)O)cc1)NCc1ccc(-c2ccccc2)cc1 | = | 6.55 |
| O=C(NCc1ccc(B(O)O)cc1)c1ccc(-c2ccccc2)cc1 | = | 6.48 |
| O=C(CCCCCc1ccccc1)Nc1ccc(B(O)O)cc1 | = | 6.24 |
| O=C(NCCc1ccc(O)cc1)c1ccc(B(O)O)cc1 | < | 5.00 |
| COc1cc(CNC(=O)CCCCCCCc2ccccc2)ccc1B(O)O | = | 5.75 |
| CCCCCCCCCc1ccc(B(O)O)cc1 | = | 5.53 |
| CC(C)(C)c1ccc(NC(=O)NCc2ccc(B(O)O)cc2)cc1 | = | 5.70 |
| O=C(/C=C/c1ccc(Cl)cc1)Nc1ccc(B(O)O)cc1 | = | 6.25 |
| CC(C)(C)c1ccc(NC(=O)Cc2ccc(B(O)O)cc2)cc1 | < | 5.00 |
| O=C(CCCCCCCc1ccccc1)NCc1ccc(B(O)O)cc1 | = | 6.33 |
| COc1cc(CNC(=O)Nc2ccc(C(C)(C)C)cc2)ccc1B(O)O | = | 5.37 |

* * *

- SYSTEM: Transient receptor potential cation channel subfamily V member 1 (Homo sapiens, UniProt Q8NER1)
- METHOD_DESCRIPTION: Antagonist activity at recombinant human TRPV1 channel expressed in HEK293 cells assessed as inhibition of capsiacin-induced Ca2+ flux preincubated for 5 mins followed by capsiacin challenge by Fluo-4-AM dye based spectrofluorimetry
- Format: cell-based
pIC50: −log10 of the molar value.
PROPERTY_LABEL: pIC50

| CHEM_SMILES | RESULT_COMPARATOR | RECORDED_MEASUREMENT |
| --- | --- | --- |
| O=C(NCc1ccc(-c2ccccc2)cc1)c1ccc(B(O)O)cc1 | < | 5.00 |
| CC(C)(C)c1ccc(C(=O)Nc2ccc(B(O)O)cc2)cc1 | = | 6.11 |
| COc1cccc(NC(=O)/C=C/c2ccc(Cl)cc2)c1 | = | 6.72 |
| O=C(NCc1ccccc1)c1ccc(B(O)O)cc1 | < | 5.00 |
| O=C(CCCCCCCc1ccccc1)NCc1ccc(B(O)O)cc1 | = | 6.30 |
| O=C(/C=C/c1ccc(Cl)cc1)Nc1cccc(B(O)O)c1 | = | 7.39 |
| O=C(Cc1ccc(B(O)O)cc1)NCc1ccccc1 | < | 5.00 |
| O=C(CCCCCc1ccccc1)NCc1ccc(B(O)O)cc1 | = | 5.54 |
| CCCCCCCCCc1ccc(B(O)O)cc1 | < | 5.00 |
| O=C(Cc1ccc(B(O)O)cc1)NCCCCCCCc1ccccc1 | = | 6.43 |
| CC(C)(C)c1ccc(NC(=O)Nc2ccc(B(O)O)cc2)cc1 | = | 5.71 |
| O=C(Cc1ccc(B(O)O)cc1)NCCCCCc1ccccc1 | = | 5.60 |
| O=C(CCCCCc1ccccc1)Nc1ccc(B(O)O)cc1 | < | 5.00 |
| O=C(NCc1ccc(B(O)O)cc1)c1ccc(-c2ccccc2)cc1 | = | 5.15 |
| O=C(Cc1ccc(O)cc1)NCCCCCCCc1ccccc1 | = | 6.59 |
| O=C(/C=C/c1ccc(Cl)cc1)NCc1ccc(B(O)O)cc1 | < | 5.00 |
| OB(O)c1ccc(-c2ccccc2)cc1 | < | 5.00 |
| COc1cc(CNC(=O)CCCCCc2ccccc2)ccc1B(O)O | = | 5.82 |
| CC(C)(C)c1ccc(NC(=O)NCc2ccc(B(O)O)cc2)cc1 | = | 5.38 |
| O=C(Nc1ccc(-c2ccccc2)cc1)c1ccc(B(O)O)cc1 | < | 5.00 |
| O=C(NCCCCCc1ccccc1)c1ccc(B(O)O)cc1 | < | 5.00 |
| CCCCCCCC/C=C\CCCCCCCC(=O)NCc1ccc(B(O)O)cc1 | = | 7.33 |
| O=C(CCc1ccccc1)NCc1ccc(B(O)O)cc1 | = | 6.64 |
| O=C(Cc1ccc(B(O)O)cc1)NCCCCc1ccccc1 | = | 5.66 |

* * *

IC50 for assorted compounds
- SYSTEM: Fatty-acid amide hydrolase 1 (Rattus norvegicus)
- Sequence (P97612 whole entry): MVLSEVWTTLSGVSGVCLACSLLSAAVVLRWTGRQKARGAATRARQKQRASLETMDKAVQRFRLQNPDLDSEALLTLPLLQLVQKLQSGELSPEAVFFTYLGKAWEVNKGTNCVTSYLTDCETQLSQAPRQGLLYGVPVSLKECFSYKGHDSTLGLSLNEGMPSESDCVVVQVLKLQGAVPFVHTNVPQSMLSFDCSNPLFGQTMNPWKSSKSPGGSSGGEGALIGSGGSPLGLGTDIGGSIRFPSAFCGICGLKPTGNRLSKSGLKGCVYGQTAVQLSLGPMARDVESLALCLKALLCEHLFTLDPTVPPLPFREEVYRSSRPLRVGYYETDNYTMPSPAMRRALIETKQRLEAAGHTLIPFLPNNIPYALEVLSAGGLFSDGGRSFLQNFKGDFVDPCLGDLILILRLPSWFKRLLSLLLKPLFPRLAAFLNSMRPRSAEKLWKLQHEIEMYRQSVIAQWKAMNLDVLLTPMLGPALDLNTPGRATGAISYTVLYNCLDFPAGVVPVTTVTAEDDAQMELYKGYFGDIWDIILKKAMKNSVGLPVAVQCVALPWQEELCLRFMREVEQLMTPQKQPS
- METHOD_DESCRIPTION: Inhibition of rat brain FAAH assessed as hydrolysis of [14C]AEA to [14C]Ethanolamine incubated for 30 mins by scintillation counting method

| COMPOUND | RESULT_COMPARATOR | IC50, nM |
| --- | --- | --- |
| O=C(NCCCCc1ccccc1)c1ccc(B(O)O)cc1 | = | 580 |
| O=C(Cc1ccccc1)NCCCCCCCc1ccccc1 | > | 10000 |
| COc1cc(CNC(=O)CCCCCc2ccccc2)ccc1B(O)O | = | 1320 |
| OB(O)c1ccc(-c2ccccc2)cc1 [BIPHENYLBORONIC ACID] | = | 790 |
| COc1cccc(NC(=O)/C=C/c2ccc(Cl)cc2)c1 | > | 10000 |
